target: OR2W1 L202C (Homo sapiens, UniProt Q9Y3N9, L202C); construct: full-length gene-specific forward and reverse primers were added; 39aa rho-tag; expressed in transfected cells; host or cells: NxG 108CC15 or HEK-293 cells; assay: GloSensor assay, OR2W1 L202C; type: cell-based; settings: EC50 in the presence of Cu^2+, 10 µmol/L Cu^2+
Sequence (Q9Y3N9 whole entry L202C): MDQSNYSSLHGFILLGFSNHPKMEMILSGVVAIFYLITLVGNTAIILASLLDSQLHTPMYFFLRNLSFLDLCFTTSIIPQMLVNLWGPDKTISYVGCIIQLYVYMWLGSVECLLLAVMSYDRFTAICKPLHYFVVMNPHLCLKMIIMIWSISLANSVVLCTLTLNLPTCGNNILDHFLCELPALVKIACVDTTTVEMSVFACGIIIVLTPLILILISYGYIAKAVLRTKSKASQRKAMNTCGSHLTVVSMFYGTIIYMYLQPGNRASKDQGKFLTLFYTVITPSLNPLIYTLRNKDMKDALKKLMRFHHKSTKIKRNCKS
Measured endpoint: EC50
Please report the result as a number followed by the unit.

Report EC50 for C=CCOC(=O)Cc1ccccc1 [Allyl phenyl acetate, allyl phenyl acetate] please.
73 µM

====

Assign pEC50 to each entry below.
biological target: OR2W1 S109A (Homo sapiens, UniProt Q9Y3N9, S109A); construct: 39aa rho-tag; expressed in transfected cells; host or cells: NxG 108CC15 or HEK-293 cells; assay: GloSensor assay, OR2W1 S109A; type: cell-based; details: 10 µmol/L Cu^2+, read-out: EC50 in the presence of Cu^2+
Sequence (Q9Y3N9 whole entry S109A): as the sequence (Q9Y3N9 whole entry L202C) above, with S109A, C202L counted along it
For clarity, pEC50 is expressed as the negative log10 of concentration in mol/L.

Report pEC50 for CCCC(S)CCOC(C)=O (centres unmarked) [3-Mercaptohexyl acetate, 3-mercaptohexyl acetate] please.
3.90

Please give the result for `SCCc1ccccc1` too.
4.41
